Biological target: Glucocorticoid Receptor (GR) (Homo sapiens, UniProt P04150)
Construct: Cells were transfected the next day with MMTV-Luc (5 μg) and pGL4-hRLuc (0.1 μg); endogenous in cells
Sequence (P04150 1-777): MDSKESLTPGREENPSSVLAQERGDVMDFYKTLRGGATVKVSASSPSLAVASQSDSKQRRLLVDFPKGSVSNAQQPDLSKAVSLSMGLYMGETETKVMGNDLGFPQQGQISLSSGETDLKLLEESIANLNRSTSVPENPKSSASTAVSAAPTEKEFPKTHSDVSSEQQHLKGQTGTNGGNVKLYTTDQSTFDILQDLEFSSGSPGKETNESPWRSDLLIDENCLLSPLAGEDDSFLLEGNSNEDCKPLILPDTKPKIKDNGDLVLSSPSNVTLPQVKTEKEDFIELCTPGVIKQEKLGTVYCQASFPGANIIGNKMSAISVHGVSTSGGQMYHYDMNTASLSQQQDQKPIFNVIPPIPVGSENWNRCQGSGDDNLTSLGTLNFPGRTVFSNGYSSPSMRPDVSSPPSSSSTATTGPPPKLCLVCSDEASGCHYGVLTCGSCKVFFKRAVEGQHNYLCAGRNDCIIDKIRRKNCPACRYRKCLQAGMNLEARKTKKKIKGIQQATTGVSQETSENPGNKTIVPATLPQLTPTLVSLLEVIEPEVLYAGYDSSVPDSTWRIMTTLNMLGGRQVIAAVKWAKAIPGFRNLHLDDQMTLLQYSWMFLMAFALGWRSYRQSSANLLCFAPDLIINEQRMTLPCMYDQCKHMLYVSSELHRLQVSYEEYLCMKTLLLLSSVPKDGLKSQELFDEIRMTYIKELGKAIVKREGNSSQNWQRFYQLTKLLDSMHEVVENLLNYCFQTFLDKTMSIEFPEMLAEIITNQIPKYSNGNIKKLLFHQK
Test: Transactivation assay (MMTV-Luc reporter in HeLa cells)
Conditions: concentration for half-maximal transactivation; HeLa, MMTV-Luc, 16 hours; mean; read-out: TA EC50
pEC50: −log10 of the molar value.
The entries below are paired with their reported pEC50.

smiles str	pEC50
C[C@@H]1C[C@H]2[C@@H]3CCC4=CC(=O)C=C[C@]4(C)[C@@]3(F)[C@@H](O)C[C@]2(C)[C@@]1(O)c1csc(NC(=O)c2ccc(F)nc2)n1	6.17
C[C@@H]1C[C@H]2[C@@H]3CCC4=CC(=O)C=C[C@]4(C)[C@@]3(F)[C@@H](O)C[C@]2(C)[C@@]1(O)c1csc(NC(=O)c2ccccn2)n1	4.77
COc1ccc(C(=O)Nc2nc([C@@]3(O)[C@H](C)C[C@H]4[C@@H]5CCC6=CC(=O)C=C[C@]6(C)[C@@]5(F)[C@@H](O)C[C@@]43C)cs2)cc1	4.76
C[C@@H]1C[C@H]2[C@@H]3CCC4=CC(=O)C=C[C@]4(C)[C@@]3(F)[C@@H](O)C[C@]2(C)[C@@]1(O)C(=O)NCCCc1cccc(F)c1	6.27
COc1ccc(OCCNC(=O)[C@@]2(O)[C@H](C)C[C@H]3[C@@H]4CCC5=CC(=O)C=C[C@]5(C)[C@@]4(F)[C@@H](O)C[C@@]32C)cc1	6.53

###

molecular target: Glucocorticoid Receptor (GR) (Homo sapiens, UniProt P04150); construct: Cells were transfected the next day with MMTV-Luc (5 μg) and pGL4-hRLuc (0.1 μg); endogenous in cells; host or cells: HeLa; assay: Transactivation assay (MMTV-Luc reporter in HeLa cells); format: cell-based; settings: HeLa, 16 h; read-out: TA Max %
Here the recorded Emax is given for each entry.
outcome measure: Emax

molecule	outcome measure	measured result
C[C@@H]1C[C@H]2[C@@H]3CCC4=CC(=O)C=C[C@]4(C)[C@@]3(F)[C@@H](O)C[C@]2(C)[C@@]1(O)c1csc(NC(=O)c2cccnc2)n1 [Compound 32]	Emax	0.03%
C[C@@H]1C[C@H]2[C@@H]3CCC4=CC(=O)C=C[C@]4(C)[C@@]3(F)[C@@H](O)C[C@]2(C)[C@@]1(O)C(=O)NCCCc1cccc(F)c1 [Compound 14]	Emax	36.6%
C[C@@H]1C[C@H]2[C@@H]3CCC4=CC(=O)C=C[C@]4(C)[C@@]3(F)[C@@H](O)C[C@]2(C)[C@@]1(O)c1csc(NC(=O)c2ccc[nH]2)n1 [Compound 37]	Emax	3.22%
C[C@@H]1C[C@H]2[C@@H]3CCC4=CC(=O)C=C[C@]4(C)[C@@]3(F)[C@@H](O)C[C@]2(C)[C@@]1(O)C(=O)NCCCc1ccccc1O [Compound 3]	Emax	24.1%
C[C@@H]1C[C@H]2[C@@H]3CCC4=CC(=O)C=C[C@]4(C)[C@@]3(F)[C@@H](O)C[C@]2(C)[C@@]1(O)c1csc(NC(=O)Cc2ccc(F)cc2)n1 [Compound 24]	Emax	2.63%
C[C@@H]1C[C@H]2[C@@H]3CCC4=CC(=O)C=C[C@]4(C)[C@@]3(F)[C@@H](O)C[C@]2(C)[C@@]1(O)C(=O)NCCOc1ccc(F)cc1 [Compound 5]	Emax	27.2%
COc1ccc(C(=O)Nc2nc([C@@]3(O)[C@H](C)C[C@H]4[C@@H]5CCC6=CC(=O)C=C[C@]6(C)[C@@]5(F)[C@@H](O)C[C@@]43C)cs2)cc1 [Compound 34]	Emax	0%
COc1cccc(OCCCNC(=O)[C@@]2(O)[C@H](C)C[C@H]3[C@@H]4CCC5=CC(=O)C=C[C@]5(C)[C@@]4(F)[C@@H](O)C[C@@]32C)c1 [Compound 15]	Emax	20.8%
C[C@@H]1C[C@H]2[C@@H]3CCC4=CC(=O)C=C[C@]4(C)[C@@]3(F)[C@@H](O)C[C@]2(C)[C@@]1(O)c1csc(NC(=O)c2ccc(F)nc2)n1 [Compound 47]	Emax	7.41%
C[C@@H]1C[C@H]2[C@@H]3CCC4=CC(=O)C=C[C@]4(C)[C@@]3(F)[C@@H](O)C[C@]2(C)[C@@]1(O)c1csc(NC(=O)c2ccc(F)cc2)n1 [Compound 23]	Emax	5.67%

###

tested on: NFkB; experiment: Transrepression assay (NFκB-LUC reporter in HeLa cells, TNF stimulated); format: cell-based; conditions: Homo sapiens, HeLa; comparison table; half-maximal repression of NFkB; multiple experiments; read-out: IC50
pIC50: −log10 of the molar value.
Catalogue of molecules with associated pIC50
outcome measure: pIC50

molecule	outcome measure	measured result
COc1ccc(OCCCCNC(=O)[C@@]2(O)[C@H](C)C[C@H]3[C@@H]4CCC5=CC(=O)C=C[C@]5(C)[C@@]4(F)[C@@H](O)C[C@@]32C)cc1	pIC50	8.22
C[C@@H]1C[C@H]2[C@@H]3CCC4=CC(=O)C=C[C@]4(C)[C@@]3(F)[C@@H](O)C[C@]2(C)[C@@]1(O)C(=O)CO [Dex, dexamethasone, reference compound]	pIC50	8.54
COc1ccc(OCCNC(=O)[C@@]2(O)[C@H](C)C[C@H]3[C@@H]4CCC5=CC(=O)C=C[C@]5(C)[C@@]4(F)[C@@H](O)C[C@@]32C)cc1	pIC50	8.91
C[C@@H]1C[C@H]2[C@@H]3CCC4=CC(=O)C=C[C@]4(C)[C@@]3(F)[C@@H](O)C[C@]2(C)[C@@]1(O)c1csc(NC(=O)c2ccc(F)cc2)n1	pIC50	7.45
COC(=O)c1ccc(OCCCNC(=O)[C@@]2(O)[C@H](C)C[C@H]3[C@@H]4CCC5=CC(=O)C=C[C@]5(C)[C@@]4(F)[C@@H](O)C[C@@]32C)cc1	pIC50	8.92
C[C@]12C=CC(=O)C=C1CC[C@@H]1[C@@H]2[C@@H](O)C[C@@]2(C)[C@H]1CC[C@]2(O)C(=O)CO	pIC50	7.89

###

Target: Glucocorticoid Receptor (GR) (Homo sapiens, UniProt P04150)
Construct: Cells were transfected the next day with MMTV-Luc (5 μg) and pGL4-hRLuc (0.1 μg); endogenous in cells; host or cells: HeLa
Test: Transactivation assay (MMTV-Luc reporter in HeLa cells)
Assay type: cell-based
Conditions: HeLa, 16 h; read-out: TA Max %
Procedure: HeLa cells were seeded at 80×10^4 cells/dish in 100 mm dishes. Cells were transfected the next day with MMTV-Luc (5 μg) and pGL4-hRLuc (0.1 μg), in 250 μL of Opti-MEM I using FuGENE HD (15 μL). […] Firefly and Renilla luciferase activity was measured using the Dual Luciferase Reporter system following the manufacturer's protocol. IC50 and EC50 values were calculated by using GraphPad Prism 5.0. Briefly, luminescence values for luciferase were normalised using the Renilla luminescence values. […]
Each entry below carries its reported Emax.
outcome measure: Emax (%)

compound	unit abbrev	measured result
Cc1ccc(C(=O)Nc2nc([C@@]3(O)[C@H](C)C[C@H]4[C@@H]5CCC6=CC(=O)C=C[C@]6(C)[C@@]5(F)[C@@H](O)C[C@@]43C)cs2)cc1 [Compound 45]	%	5.74
C[C@@H]1C[C@H]2[C@@H]3CCC4=CC(=O)C=C[C@]4(C)[C@@]3(F)[C@@H](O)C[C@]2(C)[C@@]1(O)c1csc(NC(=O)c2ccc(C(F)(F)F)cc2)n1 [Compound 30]	%	7.43
C[C@@H]1C[C@H]2[C@@H]3CCC4=CC(=O)C=C[C@]4(C)[C@@]3(F)[C@@H](O)C[C@]2(C)[C@@]1(O)C(=O)NCCOc1ccccn1 [Compound 8]	%	49.7
